assay: Inhibition of quorum sensing system in Pseudomonas aeruginosa assessed as inhibition of biofilm production at sub-MIC incubated for 24 hrs by crystal violet staining based analysis
PARAMETER: inhibition (%)
Only the number, expressed in %, is required.

The compound identified as O=C(COc1ccc(-c2nc3ccccc3[nH]2)cc1)Nc1ccccc1 registered its inhibition at 51.5

For this compound ( c1ccc2[nH]c(-c3ccc(N4CCCCC4)cc3)nc2c1 ), measured inhibition is 67.3

Form: compound = O=C(COc1ccc(-c2nc3cc(Cl)ccc3[nH]2)cc1)Nc1ccccc1[N+](=O)[O-] ; inhibition = 51.8

inhibition recorded for this compound, COc1ccc(NC(=O)COc2ccc(-c3nc4ccccc4[nH]3)cc2)cc1 , is 67.1

Entry under test: CC[C@H]1OC(=O)[C@H](C)[C@@H](O[C@H]2C[C@@](C)(OC)[C@@H](O)[C@H](C)O2)[C@H](C)[C@@H](O[C@@H]2O[C@H](C)C[C@H](N(C)C)[C@H]2O)[C@](C)(O)C[C@@H](C)CN(C)[C@H](C)[C@@H](O)[C@]1(C)O [AZITHROMYCIN] . Its inhibition was 52.5

// inhibition value for Cc1ccccc1NC(=O)COc1ccc(-c2nc3ccccc3[nH]2)cc1 : 68.9

inhibition measured on Cc1ccc2[nH]c(-c3ccc(OCC(=O)Nc4ccc([N+](=O)[O-])cc4)cc3)nc2c1 = 44.1

Reported inhibition ( O=C(COc1ccc(-c2nc3ccccc3[nH]2)cc1)Nc1ccc(F)cc1 ) = 51.8

====

experiment: Inhibition of quorum sensing system in Pseudomonas aeruginosa assessed as inhibition of rhamnolipid production at sub-MIC by spectrophotometric method
Binning scheme for inhibition: low interval: < 20%; middle interval: ≥ 20% and < 40%; high interval: ≥ 40%

Which class is correct for the following compound? c1ccc2[nH]c(-c3ccc(N4CCCCC4)cc3)nc2c1
high interval

Class (by measured inhibition) for CC[C@H]1OC(=O)[C@H](C)[C@@H](O[C@H]2C[C@@](C)(OC)[C@@H](O)[C@H](C)O2)[C@H](C)[C@@H](O[C@@H]2O[C@H](C)C[C@H](N(C)C)[C@H]2O)[C@](C)(O)C[C@@H](C)CN(C)[C@H](C)[C@@H](O)[C@]1(C)O
high interval

Which band does Cc1ccc2[nH]c(-c3ccc(OCC(=O)Nc4ccc(Cl)cc4)cc3)nc2c1 fall in?
middle interval

Form: Item = Cc1ccc(NC(=O)COc2ccc(-c3nc4ccccc4[nH]3)cc2)cc1 ; Class = ?
middle interval

# bin lookup: classify Cc1ccc2[nH]c(-c3ccc(OCC(=O)Nc4ccccc4C)cc3)nc2c1 by its inhibition
low interval

Which class is correct for the following compound? O=C(COc1ccc(-c2nc3ccccc3[nH]2)cc1)Nc1ccc(F)cc1
middle interval

Which class is correct for the following compound? Cc1ccc2[nH]c(-c3ccc(OCC(=O)Nc4ccccc4)cc3)nc2c1
middle interval

Sort Cc1ccc2[nH]c(-c3ccc(OCC(=O)Nc4ccc(F)cc4)cc3)nc2c1 into one of the categories.
middle interval

Please report the category associated with Cc1ccc(NC(=O)COc2ccc(-c3nc4cc(Cl)ccc4[nH]3)cc2)cc1 , nothing else.
low interval

Class label required: c1ccc2[nH]c(-c3ccc(N4CCOCC4)cc3)nc2c1
middle interval

Could you place COc1ccc(NC(=O)COc2ccc(-c3nc4ccccc4[nH]3)cc2)cc1 in its proper category? Many thanks.
high interval

Into which category would you place Cc1ccccc1NC(=O)COc1ccc(-c2nc3ccccc3[nH]2)cc1 ?
high interval

Using the reported inhibition, which band applies to Cc1ccccc1NC(=O)COc1ccc(-c2nc3cc(Cl)ccc3[nH]2)cc1 ?
low interval

Bin this entry: CN1CCN(c2ccc(-c3nc4ccccc4[nH]3)cc2)CC1
high interval

Input O=C(COc1ccc(-c2nc3ccccc3[nH]2)cc1)Nc1ccccc1[N+](=O)[O-] ; output its category
high interval

Category lookup for the compound Cc1ccc2[nH]c(-c3ccc(OCC(=O)Nc4ccc([N+](=O)[O-])cc4)cc3)nc2c1
low interval

# classify by inhibition band: O=C(COc1ccc(-c2nc3ccccc3[nH]2)cc1)Nc1ccc([N+](=O)[O-])cc1
middle interval

// return the class label for O=C(COc1ccc(-c2nc3cc(Cl)ccc3[nH]2)cc1)Nc1ccc([N+](=O)[O-])cc1
low interval

Kindly state the category for this compound: O=C(COc1ccc(-c2nc3cc(Cl)ccc3[nH]2)cc1)Nc1ccc(F)cc1
low interval

Band for the recorded inhibition of O=C(COc1ccc(-c2nc3cc(Cl)ccc3[nH]2)cc1)Nc1ccc(Cl)cc1 ?
low interval

Class label required: O=C(COc1ccc(-c2nc3ccccc3[nH]2)cc1)Nc1ccccc1
middle interval

Hey, which category is COc1ccc(NC(=O)COc2ccc(-c3nc4cc(C)ccc4[nH]3)cc2)cc1 in, do you know?
low interval

Returns: class label. Input: Cc1ccc(NC(=O)COc2ccc(-c3nc4cc(C)ccc4[nH]3)cc2)cc1
middle interval

Form field 'band' for COc1ccc(NC(=O)COc2ccc(-c3nc4cc(Cl)ccc4[nH]3)cc2)cc1
low interval

Band assignment needed for O=C(COc1ccc(-c2nc3ccccc3[nH]2)cc1)Nc1ccc(Cl)cc1 please.
middle interval

Class? Entry: O=C(COc1ccc(-c2nc3cc(Cl)ccc3[nH]2)cc1)Nc1ccccc1
middle interval

# bin lookup: classify Cc1ccc2[nH]c(-c3ccc(OCC(=O)Nc4ccccc4[N+](=O)[O-])cc3)nc2c1 by its inhibition
high interval

====

assay: Inhibition of quorum sensing system in Pseudomonas aeruginosa assessed as inhibition of biofilm production at sub-MIC incubated for 24 hrs by crystal violet staining based analysis
PARAMETER: inhibition (%)
Report the value in % with no unit label.

inhibition for O=C(COc1ccc(-c2nc3cc(Cl)ccc3[nH]2)cc1)Nc1ccccc1 is 53.1

// inhibition lookup, molecule = O=C(COc1ccc(-c2nc3cc(Cl)ccc3[nH]2)cc1)Nc1ccc(Cl)cc1 , result: 31

For this molecule ( O=C(COc1ccc(-c2nc3ccccc3[nH]2)cc1)Nc1ccc([N+](=O)[O-])cc1 ), measured inhibition is 63.6

Record Cc1ccc2[nH]c(-c3ccc(OCC(=O)Nc4ccccc4)cc3)nc2c1 , field inhibition: 56.3

Form: molecule = Cc1ccc(NC(=O)COc2ccc(-c3nc4ccccc4[nH]3)cc2)cc1 ; inhibition = 52.4

Field inhibition (entry CN1CCN(c2ccc(-c3nc4ccccc4[nH]3)cc2)CC1 ) reads 71.7

Lookup result for COc1ccc(NC(=O)COc2ccc(-c3nc4cc(Cl)ccc4[nH]3)cc2)cc1 ; measured inhibition: 39.2

response.value for COc1ccc(NC(=O)COc2ccc(-c3nc4cc(C)ccc4[nH]3)cc2)cc1 (field: inhibition) = 36.7

According to the records, this molecule O=C(COc1ccc(-c2nc3ccccc3[nH]2)cc1)Nc1ccccc1[N+](=O)[O-] displays inhibition of 63.8

Per the records, this molecule ( O=C(COc1ccc(-c2nc3ccccc3[nH]2)cc1)Nc1ccc(Cl)cc1 ) has inhibition equal to 63.1

The value of inhibition measured for the molecule Cc1ccc(NC(=O)COc2ccc(-c3nc4cc(C)ccc4[nH]3)cc2)cc1 turned out to be 64.9

====

target: Transcriptional activator protein LasR (Pseudomonas aeruginosa (strain ATCC 15692 / PAO1 / 1C / PRS 101 / LMG12228)); assay: Inhibition of Pseudomonas aeruginosa PAO1 LasR
Sequence (P25084 whole entry): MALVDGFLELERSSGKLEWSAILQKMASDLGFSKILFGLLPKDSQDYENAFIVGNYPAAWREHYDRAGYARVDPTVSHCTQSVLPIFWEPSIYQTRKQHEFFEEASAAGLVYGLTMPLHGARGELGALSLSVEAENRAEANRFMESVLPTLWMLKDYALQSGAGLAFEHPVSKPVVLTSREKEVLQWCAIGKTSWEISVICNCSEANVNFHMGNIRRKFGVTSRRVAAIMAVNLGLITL
PARAMETER: pIC50
When answering, recall that pIC50 equals minus log10 of the concentration in mol/L, and write that number alone.

Field pIC50 (entry Nc1nc2ccccc2[nH]1 ) reads 3.40

====

molecular target: Transcriptional activator protein LasR (Pseudomonas aeruginosa (strain ATCC 15692 / PAO1 / 1C / PRS 101 / LMG12228)); test: Inhibition of Pseudomonas aeruginosa PAO1 LasR co-transfected with LVAgfp reporter assessed as inhibition of GFP production measured after 12 to 24 hrs by fluorescence based analysis
PARAMETER: pIC50
// returns pIC50 (minus log10 of molar concentration), number only

molecule Cc1cc2nc(N)[nH]c2cc1C , pIC50 observed: 4.43

====

Can you tell me inhibition for the items I'm about to list?
test: Inhibition of quorum sensing system in Pseudomonas aeruginosa assessed as inhibition of biofilm production at sub-MIC incubated for 24 hrs by crystal violet staining based analysis
Please give a number only; it is taken to be in %.

The recorded inhibition for Cc1ccccc1NC(=O)COc1ccc(-c2nc3cc(Cl)ccc3[nH]2)cc1 is 29

Sure, the documented inhibition for Cc1ccc(NC(=O)COc2ccc(-c3nc4cc(Cl)ccc4[nH]3)cc2)cc1 is 31.3

# inhibition (compound: c1ccc2[nH]c(-c3ccc(N4CCOCC4)cc3)nc2c1 ) is 60.5

// c1ccc2[nH]c(-c3ccc(-n4ccnc4)cc3)nc2c1 : inhibition value = 46.1

Cc1ccc2[nH]c(-c3ccc(OCC(=O)Nc4ccc(Cl)cc4)cc3)nc2c1 yielded inhibition of 55.7

// field: inhibition; key: Cc1ccc2[nH]c(-c3ccc(OCC(=O)Nc4ccccc4[N+](=O)[O-])cc3)nc2c1 ; value = 64.9

So, O=C(COc1ccc(-c2nc3cc(Cl)ccc3[nH]2)cc1)Nc1ccc(F)cc1 ? Its inhibition was 45

Item: O=C(COc1ccc(-c2nc3cc(Cl)ccc3[nH]2)cc1)Nc1ccc([N+](=O)[O-])cc1 | inhibition: 32.5

response.value for Cc1ccc2[nH]c(-c3ccc(OCC(=O)Nc4ccc(F)cc4)cc3)nc2c1 (field: inhibition) = 59.6

Entry Cc1ccc2[nH]c(-c3ccc(OCC(=O)Nc4ccccc4C)cc3)nc2c1 ; inhibition = 39.5
